- Test system: Escherichia coli IFO 3972
- Test Name: MIC by liquid medium dilution technique, 96-well microplate, gram-negative bacteria
- Format: cell-based
- Details: IFO 3972, 24 h
- Method: Regarding the antimicrobial peptide (samples 1 to 20) related to the present invention, the antimicrobial activities (minimum inhibitory concentration: MIC) with respect to gram-negative bacteria (Escherichia coli IFO 3972) and gram-positive bacteria (Staphylococcus aureus IFO 12732) were determined by a liquid medium dilution technique using a 96-well microplate. […]
Observable: Antimicrobial Activities (MIC) E. coli (µM)
Your answer should be a plain number; it is taken to be in µM.

Query: Please look up its Antimicrobial Activities (MIC) E. coli: H-LMWWMLRIRKKLR-NH2 [sample 4, LMWWMLRIRKKLR-CONH2]
Reply: 6.3

Query: Please look up its Antimicrobial Activities (MIC) E. coli: H-RKKKRKVLMWWMLR-NH2 [sample 1, RKKKRKVLMWWMLR-CONH2]
Reply: 6.3

Query: Please look up its Antimicrobial Activities (MIC) E. coli: H-RKKKRKVLMWWMLR-OH [sample 16, RKKKRKVLMWWMLR-COOH]
Reply: 12.5

Query: Please look up its Antimicrobial Activities (MIC) E. coli: H-RKKKRKVLLTAKMR-NH2 [sample 10, RKKKRKVLLTAKMR-CONH2]
Reply: 50
